Biological target: P-selectin (Homo sapiens)
Construct: P-selectin is isolated from human platelet lysates
Sequence (P16109 42-830): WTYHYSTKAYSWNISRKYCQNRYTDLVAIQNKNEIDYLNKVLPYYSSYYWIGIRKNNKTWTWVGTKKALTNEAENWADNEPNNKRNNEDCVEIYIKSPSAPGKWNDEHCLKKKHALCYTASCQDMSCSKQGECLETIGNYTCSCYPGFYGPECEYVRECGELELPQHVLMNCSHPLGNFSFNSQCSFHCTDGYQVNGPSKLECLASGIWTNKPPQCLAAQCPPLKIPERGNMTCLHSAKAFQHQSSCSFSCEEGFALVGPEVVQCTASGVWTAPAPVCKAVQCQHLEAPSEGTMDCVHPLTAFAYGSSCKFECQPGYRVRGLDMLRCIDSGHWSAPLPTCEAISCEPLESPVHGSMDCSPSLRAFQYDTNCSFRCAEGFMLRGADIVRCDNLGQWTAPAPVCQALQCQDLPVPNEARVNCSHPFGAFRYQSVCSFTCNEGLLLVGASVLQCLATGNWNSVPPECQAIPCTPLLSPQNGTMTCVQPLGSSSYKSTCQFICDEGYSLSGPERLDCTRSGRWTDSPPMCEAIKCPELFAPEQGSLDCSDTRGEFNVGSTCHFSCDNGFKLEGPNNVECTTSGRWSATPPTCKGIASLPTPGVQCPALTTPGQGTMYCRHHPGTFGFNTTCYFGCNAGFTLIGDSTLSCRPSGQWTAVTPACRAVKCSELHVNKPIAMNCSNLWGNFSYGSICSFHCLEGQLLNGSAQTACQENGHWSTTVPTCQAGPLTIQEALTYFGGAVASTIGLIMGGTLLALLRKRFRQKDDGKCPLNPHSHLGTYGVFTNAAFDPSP
Test: Inhibition of human neutrophil adhesion to purified P-selectin immobilized on plastic wells
Settings: inhibiting the binding of human neutrophils to P-selectin
Where a SMILES comes first, the peptide text is derived from it. Bridges are numbered along the chain shown (N, C = ends). [ ]: non-standard residue; d: D form.
Property Name: pIC50
The quantity pIC50 is defined as the negative base-10 logarithm of the molar concentration.

Below, each entry is followed by its recorded pIC50 result.
1. CC(C)[C@@H](NC(=O)[C@@H](Cc1c[nH]c2ccccc12)NC(=O)[C@H](NC(=O)[C@@H](Cc1c[nH]c2ccccc12)NC(=O)[C@H]1CSSC[C@@H](NC(=O)[C@@H](CCCCN)NC(=O)[C@H](N)CCCNC(=N)N)C(=O)N2CCC[C@H]2C(=O)NCC(=O)N1)[C@H](C)O)C(N)=O [(83)] (H-[dR][dK][dC]PG[dC][dW][dT][dW][dV]-NH2; disulfide 3-6) | 3.01
2. CC(C)[C@@H](NC(=O)[C@@H](Cc1c[nH]c2ccccc12)NC(=O)[C@H](NC(=O)[C@@H](Cc1c[nH]c2ccccc12)NC(=O)[C@H]1CSSC[C@@H](NC(=O)[C@@H](CCCCN)NC(=O)[C@H](N)CCCNC(=N)N)C(=O)N2CCC[C@H]2C(=O)N[C@@H](Cc2ccccc2)C(=O)N1)[C@H](C)O)C(N)=O [(84)] (H-[dR][dK][dC]PF[dC][dW][dT][dW][dV]-NH2; disulfide 3-6) | 4.58

Let us move to another entry and its pIC50.
Lab note: molecule CC[C@@H](C)[C@@H](NC(=O)[C@@H](CCCCN)NC(=O)[C@H](N)CCCNC(=N)N)C(=O)NCC(=O)N[C@@H]1CSSC[C@H](C(=O)N[C@H](Cc2c[nH]c3ccccc23)C(=O)N[C@@H](C(N)=O)C(C)C)NC(=O)[C@@H](Cc2c[nH]c3ccccc23)NC(=O)[C@@H]([C@H](C)CC)NC1=O [(107)] (H-[dR][dK][dI]G[dC][dI][dW][dC][dW][dV]-NH2; disulfide 5-8) tested on P-selectin (Homo sapiens); recorded pIC50 was 5.10

---

target: P-selectin (Homo sapiens, UniProt P16109); construct: P-selectin is isolated from human platelet lysates; assay: Inhibition of human neutrophil adhesion to purified P-selectin immobilized on plastic wells; settings: inhibiting the binding of human neutrophils to P-selectin
Where a SMILES comes first, the peptide text is derived from it. Bridges are numbered along the chain shown (N, C = ends). [ ]: non-standard residue; d: D form. dThz = O=C(O)[C@H]1CSCN1
Property Name: IC50 (µM)
Numbers only here, please. The scale is µM.

Worked set:
1) CC(C)[C@@H](NC(=O)[C@@H](Cc1c[nH]c2ccccc12)NC(=O)[C@H](NC(=O)[C@@H](Cc1c[nH]c2ccccc12)NC(=O)[C@H]1CSSC[C@@H](NC(=O)[C@@H](CCCCN)NC(=O)[C@H](N)CCCNC(=N)N)C(=O)N[C@@H](Cc2ccccc2)C(=O)NCC(=O)N1)[C@H](C)O)C(N)=O [(18)] (H-[dR][dK][dC]FG[dC][dW][dT][dW][dV]-NH2; disulfide 3-6) | 49
2) CC(C)[C@@H](NC(=O)[C@@H](Cc1c[nH]c2ccccc12)NC(=O)[C@H](NC(=O)[C@@H](Cc1ccccc1)NC(=O)[C@H]1CSSC[C@@H](NC(=O)[C@@H](CCCCN)NC(=O)[C@H](N)CCCNC(=N)N)C(=O)NCC(=O)NCC(=O)N1)[C@H](C)O)C(N)=O [(14)] (H-[dR][dK][dC]GG[dC][dF][dT][dW][dV]-NH2; disulfide 3-6) | 40
3) CC(C)[C@@H](NC(=O)[C@@H](Cc1c[nH]c2ccccc12)NC(=O)[C@H](NC(=O)[C@@H](Cc1c[nH]c2ccccc12)NC(=O)[C@H]1CSSC[C@@H](NC(=O)[C@@H](CCCCN)NC(=O)[C@H](N)CCCNC(=N)N)C(=O)NCC(=O)N[C@@H](Cc2ccccc2)C(=O)N1)[C@H](C)O)C(N)=O [(19)] (H-[dR][dK][dC]GF[dC][dW][dT][dW][dV]-NH2; disulfide 3-6) | 6
4) CC(C)[C@@H](NC(=O)[C@@H](Cc1c[nH]c2ccccc12)NC(=O)[C@H](NC(=O)[C@@H](Cc1c[nH]c2ccccc12)NC(=O)[C@H]1CSSC[C@@H](NC(=O)[C@@H](CCCCN)NC(=O)[C@H](N)CCCNC(=N)N)C(=O)NCC(=O)N2CSC[C@@H]2C(=O)N1)[C@H](C)O)C(N)=O [(58)] (H-[dR][dK][dC]G[dThz][dC][dW][dT][dW][dV]-NH2; disulfide 3-6) | 186
5) CC(C)[C@@H](NC(=O)[C@@H](Cc1c[nH]c2ccccc12)NC(=O)[C@H](NC(=O)[C@@H](Cc1c[nH]c2ccccc12)NC(=O)[C@@H]1CSSC[C@H](NC(=O)[C@@H](CCCCN)NC(=O)[C@H](N)CCCNC(=N)N)C(=O)NCC(=O)NCC(=O)N1)[C@H](C)O)C(N)=O [(113)] (H-[dR][dK]CGGC[dW][dT][dW][dV]-NH2; disulfide 3-6) | 0.7

Proceeding to the next compound to report its IC50.
The reported IC50 of the compound CC(C)[C@@H](NC(=O)[C@@H](Cc1c[nH]c2ccccc12)NC(=O)[C@H](NC(=O)[C@@H](Cc1c[nH]c2ccccc12)NC(=O)[C@H]1CSC[C@@H](NC(=O)[C@@H](CCCCN)NC(=O)[C@H](N)CCCNC(=N)N)C(=O)NCC(=O)N[C@@H](Cc2ccccc2)C(=O)N1)[C@H](C)O)C(N)=O [(81)] was 10.6

---

# IC50 per entry
molecular target: P-selectin (Homo sapiens, UniProt P16109); construct: P-selectin is isolated from human platelet lysates; assay: Inhibition of human neutrophil adhesion to purified P-selectin immobilized on plastic wells; details: inhibiting the binding of human neutrophils to P-selectin
Where a SMILES comes first, the peptide text is derived from it. Bridges are numbered along the chain shown (N, C = ends). [ ]: non-standard residue; d: D form.
Just the number please, in µM, no unit attached.

The following compounds have reported results that may help.
1) CC(C)[C@@H](NC(=O)[C@@H](Cc1c[nH]c2ccccc12)NC(=O)[C@H](NC(=O)[C@@H](Cc1c[nH]c2ccccc12)NC(=O)[C@H]1CSSC[C@@H](NC(=O)[C@@H](CCCCN)NC(=O)[C@H](N)CCCNC(=N)N)C(=O)NCC(=O)N[C@@H](CCCCN)C(=O)N1)[C@H](C)O)C(N)=O [(71)] (H-[dR][dK][dC]GK[dC][dW][dT][dW][dV]-NH2; disulfide 3-6) | 2000
2) CC(C)[C@@H](NC(=O)[C@@H](Cc1ccc2ccccc2c1)NC(=O)[C@H](NC(=O)[C@@H](Cc1c[nH]c2ccccc12)NC(=O)[C@H]1CSC[C@@H](NC(=O)[C@@H](CCCCN)NC(=O)[C@H](N)CCCNC(=N)N)C(=O)NCC(=O)N[C@@H](Cc2ccccc2)C(=O)N1)[C@H](C)O)C(N)=O | 50.7

# ---- query compound ----
Tested on P-selectin (Homo sapiens, UniProt P16109), the item CC[C@@H](C)[C@@H](NC(=O)[C@@H](CCCCN)NC(=O)[C@H](N)CCCNC(=N)N)C(=O)NCC(=O)N[C@@H]1CSSC[C@H](C(=O)N[C@@H](C(=O)N[C@@H](C(N)=O)C(C)C)[C@H](C)O)NC(=O)[C@@H](Cc2c[nH]c3ccccc23)NC(=O)[C@@H]([C@H](C)CC)NC1=O [(108)] (H-[dR][dK][dI]G[dC][dI][dW][dC][dT][dV]-NH2; disulfide 5-8) showed IC50 equal to 23.8
